compounds and their reported log10(IC50)
system_under_test: human recombinant 6His-Nterm SHP2 full-length (Thr2-Arg593) (Homo sapiens)
Construct: 6His-Nterm SHP2 full-length (Thr2-Arg593, R&D system); 6His (N)
method_summary: SHP2 Phosphatase Assay (DiFMUP fluorescence)
condition_notes: SHP2 0.2 nM pre-incubated with 100 nM bi-phosphorylated activating peptide; compound 1000-0.05 nM, 30 min pre-incubation; DiFMUP 20 µM, 45 min, room temperature; 10-concentration dose-response
Procedure: Inhibition of SHP2 phosphatase activity was evaluated using human recombinant 6His-Nterm SHP2 full-length (Thr2-Arg593, R&D system), NsCs bi-phosphorylated activating peptide (NH2-LN(pY)AQLWHA(PEG8)LTI(pY)ATIRRF-Amide.acetate, Thermofischer Scientific) and DiFMUP as surrogate phosphatase substrate (Molecular Probes). […] The fluorescence signal was measured at excitation and emission wavelengths of 350 nm and 450 nm, respectively, using a Pherastar instrument (BMG-LabTech). […]
Counter-ions that a name gives are not always drawn.
Hi team, quick reminder: these entries are log10 of IC50 (nM).

Known log10(IC50) results, listed for orientation:
CC(=O)c1ccc(F)c(-c2c(C)nc(N3CCC4(CC3)Cc3ncccc3[C@H]4N)c3ccnn23)c1 : 1.74
COc1ccc(-c2c(C)nc(N3CCC4(CC3)Cc3ncccc3[C@H]4N)c3ccnn23)c(F)c1F : 0.60
Cc1nc(N2CCC3(CC2)Cc2ncccc2[C@H]3N)c2ccnn2c1-c1cc(F)ccc1F : 0.60
Cc1nc(N2CCC3(CC2)Cc2cc(F)c(F)cc2[C@H]3N)c2ccnn2c1-c1cnn(C)c1C [Compound 80, hydrochloride] : 1.23
Cc1nccc(-c2c(C)nc(N3CCC4(CC3)Oc3ncccc3[C@H]4N)c3ccnn23)c1Cl : 1.30
Cc1nc(N2CCC3(CC2)Cc2ncccc2[C@H]3N)c2ccnn2c1-c1ccc(F)c2cc[nH]c12 : 0.48

Consider now this further compound.
Please report the recorded log10(IC50) for Cc1nc(N2CCC3(CC2)Cc2ncccc2[C@H]3N)c2ccnn2c1-c1ccc2c(c1F)OCCO2 .
0.48

====

system_under_test: human recombinant 6His-Nterm SHP2 full-length (Thr2-Arg593) (Homo sapiens, UniProt Q06124)
Construct: 6His-Nterm SHP2 full-length (Thr2-Arg593, R&D system); 6His (N)
Sequence (Q06124 2-593): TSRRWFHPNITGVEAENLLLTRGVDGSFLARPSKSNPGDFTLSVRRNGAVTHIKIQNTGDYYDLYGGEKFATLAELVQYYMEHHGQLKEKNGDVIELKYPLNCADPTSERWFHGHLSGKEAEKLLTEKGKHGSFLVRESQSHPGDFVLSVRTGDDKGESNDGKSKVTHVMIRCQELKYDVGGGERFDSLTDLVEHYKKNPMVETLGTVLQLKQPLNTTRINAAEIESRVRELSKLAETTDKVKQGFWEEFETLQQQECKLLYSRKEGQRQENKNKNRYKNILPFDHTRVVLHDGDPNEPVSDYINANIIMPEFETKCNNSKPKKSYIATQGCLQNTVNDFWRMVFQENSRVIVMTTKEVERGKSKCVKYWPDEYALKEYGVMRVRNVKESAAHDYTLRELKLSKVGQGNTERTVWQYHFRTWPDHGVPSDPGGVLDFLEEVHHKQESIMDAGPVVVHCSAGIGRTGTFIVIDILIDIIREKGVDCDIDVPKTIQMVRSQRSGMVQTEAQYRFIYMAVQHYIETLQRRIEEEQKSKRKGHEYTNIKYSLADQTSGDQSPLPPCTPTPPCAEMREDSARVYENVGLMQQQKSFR
method_summary: SHP2 Phosphatase Assay (DiFMUP fluorescence)
condition_notes: SHP2 0.2 nM pre-incubated with 100 nM bi-phosphorylated activating peptide; compound 1000-0.05 nM, 30 min pre-incubation; DiFMUP 20 µM, 45 min, room temperature; 10-concentration dose-response
Structures can show the parent of a compound that is named as a salt.
measured_property: IC50 (nM)
Answer with a number only, understood to be in nM.

Known IC50 results, listed for orientation:
Cc1nc(N2CCC3(CC2)Cc2ncccc2[C@H]3N)c2ccnn2c1-c1ccc2c(c1)CCN2C [Compound 171] : 20
Cc1ccc(-c2c(C)nc(N3CCC4(CC3)Cc3ncccc3[C@H]4N)c3ccnn23)c(F)c1 [Compound 186] : 2
COc1cccc2c1CC1(CCN(c3nc(C)c(-c4ccnc(C)c4Cl)n4nccc34)CC1)[C@@H]2N [Compound 110] : 11

Consider now this further molecule.
Please report the recorded IC50 for Cc1nccc(-c2c(C)nc(N3CCC4(CC3)Cc3ncccc3[C@H]4N)c3c(F)cnn23)c1Cl [Compound 144, hydrochloride] .
17

Attribution: patent EP4227307A1
